# EXPERIMENT DESCRIPTION: Plasma concentration was determined after 1 hr at a dose 30 mg/kg administered orally to rat-11
# Assay type: ADME, organism-based
# Design: dose 30 mg/kg, route oral
# PARTICULARS: po
PROPERTY MEASURED: concentration at 1 h (ng/mL)

SMILES INPUT	UNITS	OBSERVED MEASUREMENT
COc1cc2ncnc(N3CCN(C(=O)Nc4ccsc4)CC3)c2cc1OC	ng/mL	12400

* * *

# EXPERIMENT DESCRIPTION: Plasma concentration was determined after 8 hr at a dose 30 mg/kg administered orally to rat-9
# Format: ADME, organism-based
# Set-up: dose 30 mg/kg, route oral
# PARTICULARS: po

SMILES INPUT	UNITS	concentration at 8 h
COc1cc2ncnc(N3CCN(/C(S)=N\Cc4ccc5c(c4)OCO5)CC3)c2cc1OC	ng/mL	2400
